Origin of the recorded values: patent EP0942911B1

# assayed_system: UniProt:P43140
# assay_comment: biochemical
# Assay type: binding
# recorded_conditions: [3H]-prazosin radioligand; rat submaxillary gland membranes; read-out: Radioligand Binding (Ki, nM) 1A (Rat)
Counter-ions that a name gives are not always drawn.
reported_property: Ki (nM)
Write the answer as a number in nM, unit excluded.

COc1cccc2c1[C@H]1CN(CCCCn3c(=O)[nH]c4c(sc5cccnc54)c3=O)C[C@H]1CO2 [Example 2, hydrochloride] ... 0.95
COc1cccc2c1[C@@H]1CN(CCCCn3c(=O)[nH]c4c(sc5ncccc54)c3=O)C[C@H]1CO2 [Example 44, hydrochloride] ... 0.043
COc1cccc2c1[C@@H]1CN(CCCCn3c(=O)[nH]c4c(sc5c(Cl)nccc54)c3=O)C[C@@H]1CO2 [Example 53] ... 0.872
COc1cccc2c1[C@@H]1CCN(CCCCn3c(=O)[nH]c4c(sc5ncccc54)c3=O)C[C@H]1CO2 (racemic) [Example 85, dihydrochloride] ... 0.419
COc1cccc2c1[C@@H]1CN(CCCCn3c(=O)[nH]c4c(sc5ncc(-c6cccnc6)nc54)c3=O)C[C@H]1CO2 [Example 60, dihydrochloride] ... 0.187
COc1cccc2c1[C@H]1CN(CCCCn3c(=O)[nH]c4c(sc5ccc(Cl)nc54)c3=O)C[C@@H]1CO2 [Example 6, dihydrochloride] ... 0.409
COc1cc(O)cc2c1[C@@H]1CN(CCCCn3c(=O)[nH]c4c(sc5ncc(-c6ccccc6)nc54)c3=O)C[C@@H]1CO2 (relative stereo) [Example 104] ... 3.59
COc1cnc2sc3c(=O)n(CCCCN4CC5COc6cccc(OC)c6[C@@H]5C4)c(=O)[nH]c3c2n1.Cl (stereo in doubt) [Example 43, hydrochloride] ... 0.114

Quick one: Ki of COc1cccc2c1[C@@H]1CN(CCCCn3c(=O)[nH]c4c(sc5ccc(OC(C)C)nc54)c3=O)C[C@H]1CO2 [Example 51, hydrochloride] ?
1.19

Quick one: Ki of COc1cc2[nH]c(=O)n(CCCN3CC[C@H]4c5c(OC)cccc5OC[C@@H]4C3)c(=O)c2cc1OC (racemic) [Example 83, hydrochloride] ?
0.383

Quick one: Ki of COc1cccc2c1[C@@H]1CN(CCCCn3c(=O)[nH]c4c(sc5ccncc54)c3=O)C[C@H]1CO2 [Example 41, dihydrochloride] ?
0.069

###

# assayed_system: α-1d adrenoreceptor (Rattus norvegicus, UniProt P23944)
# Sequence (P23944 whole entry): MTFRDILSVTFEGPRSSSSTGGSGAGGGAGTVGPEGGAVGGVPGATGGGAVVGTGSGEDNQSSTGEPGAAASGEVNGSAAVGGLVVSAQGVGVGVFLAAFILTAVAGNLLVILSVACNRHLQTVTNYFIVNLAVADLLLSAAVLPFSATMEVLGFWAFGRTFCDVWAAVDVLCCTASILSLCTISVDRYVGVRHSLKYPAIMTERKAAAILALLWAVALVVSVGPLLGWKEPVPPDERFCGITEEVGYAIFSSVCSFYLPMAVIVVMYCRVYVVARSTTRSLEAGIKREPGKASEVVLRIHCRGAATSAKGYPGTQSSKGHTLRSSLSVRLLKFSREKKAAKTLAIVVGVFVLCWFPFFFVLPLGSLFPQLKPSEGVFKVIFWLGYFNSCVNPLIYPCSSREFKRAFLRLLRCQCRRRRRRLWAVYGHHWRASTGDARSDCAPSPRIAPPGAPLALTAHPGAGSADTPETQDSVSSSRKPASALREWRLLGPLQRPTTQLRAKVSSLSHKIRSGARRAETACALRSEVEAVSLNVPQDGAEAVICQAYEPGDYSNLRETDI
# assay_comment: biochemical
# Assay type: binding
# recorded_conditions: [3H]-prazosin radioligand; cloned receptor in LTK cell membranes; read-out: Radioligand Binding (Ki, nM) 1d (Rat)
Structures can show the parent of a compound that is named as a salt.
reported_property: Ki (nM)
Write the answer as a number in nM, unit excluded.

COc1cccc2c1[C@@H]1CN(CCCCn3c(=O)[nH]c4c(sc5nc(C)ccc54)c3=O)C[C@@H]1CO2 [Example 35, hydrochloride] ... 0.436

Quick one: Ki of COc1cccc2c1[C@@H]1CN(CCCCn3c(=O)[nH]c4c(sc5nccnc54)c3=O)C[C@@H]1CO2 [Example 15, dihydrochloride] ?
0.928

Quick one: Ki of COc1cccc2c1[C@@H]1CN(CCCCn3c(=O)[nH]c4c(sc5cnccc54)c3=O)C[C@@H]1CO2 [Example 29, dihydrochloride] ?
0.466

###

# assayed_system: α-1A adrenoreceptor (rat submaxillary gland) (Rattus norvegicus, UniProt P43140)
# Sequence (P43140 1-466): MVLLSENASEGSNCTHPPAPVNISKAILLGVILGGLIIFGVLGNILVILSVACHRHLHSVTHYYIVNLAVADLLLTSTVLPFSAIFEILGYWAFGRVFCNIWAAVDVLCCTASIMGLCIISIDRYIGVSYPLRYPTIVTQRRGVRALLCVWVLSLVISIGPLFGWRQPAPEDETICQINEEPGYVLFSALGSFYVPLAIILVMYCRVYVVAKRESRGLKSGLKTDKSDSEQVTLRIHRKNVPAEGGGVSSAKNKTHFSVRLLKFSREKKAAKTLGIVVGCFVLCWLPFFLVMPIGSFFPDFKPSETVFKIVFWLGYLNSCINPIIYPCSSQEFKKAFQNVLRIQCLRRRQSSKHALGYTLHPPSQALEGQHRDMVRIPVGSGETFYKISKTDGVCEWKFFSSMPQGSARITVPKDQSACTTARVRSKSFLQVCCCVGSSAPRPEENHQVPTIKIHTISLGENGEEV
# assay_comment: biochemical
# Assay type: binding
# recorded_conditions: read-out: Radioligand Binding (Ki, nM) 1A (Rat)
Where a name gives a salt, the structure may show the parent alone.
So basically: is Ki under 6 nM? Then condition met. Not under? Then condition not met.

Some entries whose results are on file:
COc1cccc2c1[C@@H]1CN(CCCCn3c(=O)[nH]c4c(sc5cccnc54)c3=O)C[C@@H]1CO2 (racemic) [Example 73, dihydrochloride] ... condition met
COc1ccc2c(c1)[C@@H]1CN(CCCCn3c(=O)[nH]c4c(sc5ncccc54)c3=O)C[C@@H]1CO2 (racemic) [Example 75, dihydrochloride] ... condition met
COc1cccc2c1[C@H]1CN(CCCCn3c(=O)[nH]c4c(sc5cccnc54)c3=O)C[C@@H]1CO2 (racemic) [Example 72, dihydrochloride] ... condition met

Please determine if COc1cccc2c1OC[C@H]1CN(CCn3c(=O)[nH]c4c(sc5ccccc54)c3=O)C[C@@H]21.Cl (racemic) [Example 67, hydrochloride] is below 6 nM in terms of Ki.
condition not met

Please determine if COc1cccc2c1OC[C@H]1CN(CCCn3c(=O)[nH]c4c(sc5ccccc54)c3=O)C[C@@H]21.Cl (racemic) [Example 68, hydrochloride] is below 6 nM in terms of Ki.
condition not met

Please determine if COc1cc2[nH]c(=O)n(CCCCN3C[C@@H]4COc5ccccc5[C@H]4C3)c(=O)c2cc1OC (racemic) [Example 80, hydrochloride] is below 6 nM in terms of Ki.
condition met

Please determine if COc1cc2[nH]c(=O)n(CCCCN3C[C@@H]4COc5cccc(OC)c5[C@@H]4C3)c(=O)c2cc1OC (racemic) [Example 79, hydrochloride] is below 6 nM in terms of Ki.
condition met

Please determine if O=c1[nH]c2c(sc3cccnc32)c(=O)n1CCCCN1C[C@@H]2COc3ccccc3[C@H]2C1 (racemic) [Example 71, hydrochloride] is below 6 nM in terms of Ki.
condition met

Please determine if COc1ccc2c(c1)[C@@H]1CN(CCCn3c(=O)[nH]c4c(sc5ncccc54)c3=O)C[C@@H]1CO2 (racemic) [Example 77, hydrochloride] is below 6 nM in terms of Ki.
condition not met

###

# assayed_system: α-1d adrenoreceptor (Rattus norvegicus, UniProt P23944)
# assay_comment: biochemical
# Format: binding
# recorded_conditions: [3H]-prazosin radioligand; cloned receptor in LTK cell membranes; read-out: Radioligand Binding (Ki, nM) 1d (Rat)
Where a name gives a salt, the structure may show the parent alone.
So basically: is Ki under 0.2 nM? Then YES. Not under? Then NO.

COc1cccc2c1[C@@H]1CN(CCCCn3c(=O)[nH]c4c(sc5ccc(-c6ccccc6)nc54)c3=O)C[C@H]1CO2 [Example 52, dihydrochloride] ... NO

Please determine if COc1cccc2c1[C@@H]1CN(CCCCn3c(=O)[nH]c4c(sc5c(OC)ccnc54)c3=O)C[C@H]1CO2 [Example 17, dihydrochloride] is below 0.2 nM in terms of Ki.
YES

Please determine if COc1cccc2c1[C@@H]1CN(CCCCn3c(=O)[nH]c4c(sc5ncc(-c6ccsc6)nc54)c3=O)C[C@@H]1CO2 [Example 57, dihydrochloride] is below 0.2 nM in terms of Ki.
NO

Please determine if COc1cccc2c1[C@@H]1CN(CCCCn3c(=O)[nH]c4c(sc5cccnc54)c3=O)C[C@@H]1CO2 [Example 1, hydrochloride] is below 0.2 nM in terms of Ki.
NO

Please determine if COc1cccc2c1[C@H]1CN(CCCCn3c(=O)[nH]c4c(sc5nccnc54)c3=O)C[C@@H]1CO2 [Example 12, dihydrochloride] is below 0.2 nM in terms of Ki.
NO

Please determine if COc1ccc2c(n1)sc1c(=O)n(CCCCN3CC[C@H]4c5c(OC)cccc5OC[C@@H]4C3)c(=O)[nH]c12 [Example 103, hydrochloride] is below 0.2 nM in terms of Ki.
NO

###

# Ki values compiled below
# assayed_system: α-1d adrenoreceptor (Rattus norvegicus)
# assay_comment: biochemical
# Assay type: binding
# recorded_conditions: read-out: Radioligand Binding (Ki, nM) 1d (Rat)
Counter-ions that a name gives are not always drawn.
Write the answer as a number in nM, unit excluded.

COc1ccc2c(c1)[C@@H]1CN(CCCCn3c(=O)[nH]c4c(sc5ncccc54)c3=O)C[C@@H]1CO2 (racemic) [Example 75, dihydrochloride] ... 18.3

Quick one: Ki of O=c1[nH]c2c(sc3cccnc32)c(=O)n1CCCCN1C[C@@H]2COc3ccccc3[C@@H]2C1 (racemic) [Example 70, dihydrochloride] ?
0.482

Quick one: Ki of COc1cccc2c1[C@@H]1CN(CCn3c(=O)[nH]c4c(sc5ccccc54)c3=O)C[C@@H]1CO2.Cl (racemic) [Example 65, hydrochloride] ?
25

Quick one: Ki of O=c1[nH]c2c(sc3cccnc32)c(=O)n1CCCCN1C[C@@H]2COc3ccccc3[C@H]2C1 (racemic) [Example 71, hydrochloride] ?
0.169

Quick one: Ki of COc1ccc2c(c1)OC[C@H]1CN(CCn3c(=O)[nH]c4c(sc5ccccc54)c3=O)C[C@@H]21.Cl (racemic) [Example 63, hydrochloride] ?
70.1

Quick one: Ki of COc1cc2[nH]c(=O)n(CCCCN3C[C@@H]4COc5ccccc5[C@H]4C3)c(=O)c2cc1OC (racemic) [Example 80, hydrochloride] ?
0.765
